Here, each record is paired with measured Efficacy (%), RGA data.
Molecular target: T1, human IL-11 (human, UniProt P20809 22-199)
T1 sequence: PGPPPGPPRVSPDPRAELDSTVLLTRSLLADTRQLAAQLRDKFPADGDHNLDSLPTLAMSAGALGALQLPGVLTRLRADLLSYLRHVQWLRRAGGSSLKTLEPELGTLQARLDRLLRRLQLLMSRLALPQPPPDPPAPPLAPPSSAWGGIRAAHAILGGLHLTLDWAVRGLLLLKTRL
Test: cell-based or functional assay
// return numeric value only (unit: %, not printed)

Some entries whose results are on file:
TPP-27157 (antibody, V domains shown) VH: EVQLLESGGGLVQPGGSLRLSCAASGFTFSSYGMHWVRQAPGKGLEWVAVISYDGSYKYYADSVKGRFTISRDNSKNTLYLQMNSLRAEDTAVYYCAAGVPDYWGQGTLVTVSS VL: QSVLTQPPSASGTPGQRVTISCTGSSSNIGAGYDVHWYQQLPGTAPKLLIYSNNERPSGVPDRFSGSKSGTSASLAISGLRSEDEADYYCAAWDDSLSGPVFGGGTKLTVL; 51.2
TPP-21158 (antibody, V domains shown) VH: EVQLLESGGGLVQPGGSLRLSCAASGFTFSSYGMHWVRQAPGKGLEWVAVISYDGSYKYYADSVKGRFTISRDNSKNTLYLQMNSLRAEDTAVYYCARGVPDYWGQGTLVTVSS VL: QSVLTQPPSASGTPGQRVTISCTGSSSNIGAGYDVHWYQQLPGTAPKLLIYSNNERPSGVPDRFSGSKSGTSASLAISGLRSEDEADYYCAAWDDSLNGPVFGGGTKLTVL; 19.4
TPP-27160 (antibody, V domains shown) VH: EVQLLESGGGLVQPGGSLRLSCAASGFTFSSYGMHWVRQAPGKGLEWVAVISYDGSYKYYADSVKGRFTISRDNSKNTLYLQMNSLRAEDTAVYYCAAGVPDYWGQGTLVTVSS VL: QSVLTQPPSASGTPGQRVTISCSGSSSNIGSGYDVHWYQQLPGTAPKLLIYDNNERPSGVPDRFSGSKSGTSASLAISGLRSEDEADYYCAAWDDSLSGPVFGGGTKLTVL; -2.8
TPP-27156 (antibody, V domains shown) VH: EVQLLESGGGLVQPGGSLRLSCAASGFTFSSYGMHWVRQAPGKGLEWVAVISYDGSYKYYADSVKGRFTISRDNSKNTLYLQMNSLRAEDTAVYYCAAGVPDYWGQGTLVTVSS VL: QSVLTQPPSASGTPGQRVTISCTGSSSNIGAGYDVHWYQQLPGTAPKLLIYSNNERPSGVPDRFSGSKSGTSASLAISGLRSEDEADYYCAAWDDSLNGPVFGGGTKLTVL; 50.4

From here, focus on the item given below.
Challenge: Look up Efficacy (%), RGA: TPP-27154 (antibody, V domains shown) VH: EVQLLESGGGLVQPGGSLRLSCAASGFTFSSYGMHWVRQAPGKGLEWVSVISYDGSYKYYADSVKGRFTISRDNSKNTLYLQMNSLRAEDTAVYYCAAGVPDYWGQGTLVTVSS VL: QSVLTQPPSASGTPGQRVTISCTGSSSNIGAGYDVHWYQQLPGTAPKLLIYSNNERPSGVPDRFSGSKSGTSASLAISGLRSEDEADYYCAAWDDSLSGPVFGGGTKLTVL
Response given: 58.7
